test_system: Recombinant human liver glucokinase (Homo sapiens (Human), UniProt P35557)
Sequence (P35557 other isoform, or with tags, fused parts or gaps): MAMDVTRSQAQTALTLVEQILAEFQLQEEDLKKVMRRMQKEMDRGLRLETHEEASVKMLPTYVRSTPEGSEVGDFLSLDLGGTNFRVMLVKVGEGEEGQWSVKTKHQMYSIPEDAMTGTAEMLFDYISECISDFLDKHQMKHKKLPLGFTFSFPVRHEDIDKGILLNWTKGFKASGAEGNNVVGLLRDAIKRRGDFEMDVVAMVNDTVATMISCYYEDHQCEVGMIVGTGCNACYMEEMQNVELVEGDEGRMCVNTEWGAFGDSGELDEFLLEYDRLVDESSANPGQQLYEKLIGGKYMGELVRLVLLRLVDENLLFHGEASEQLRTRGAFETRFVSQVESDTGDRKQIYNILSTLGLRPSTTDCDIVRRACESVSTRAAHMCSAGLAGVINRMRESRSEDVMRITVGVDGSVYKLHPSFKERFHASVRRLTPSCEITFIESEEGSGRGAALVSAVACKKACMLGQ
measurement_protocol: Glucokinase activation assay (G6PDH-coupled, Thio-NADH absorbance at 405 nm)
experimental_setup: 2.5 mM Glu, 30° C.
Source text: The glucokinase activity can, for instance, be determined without directly measuring glucose-6-phosphate by measuring the amount of Thio-NADH generated during the production of phosphogluconolactone from glucose-6-phosphate by a reporter enzyme glucose-6-phosphate dehydrogenase. To test the exemplified compounds, the following assay was employed. Recombinant human liver glucokinase was expressed as a FLAG fusion protein in E. coli, and purified on […] M2 AFFINITY GEL (Sigma). […]
property: EC50 (nM)
Give bare numbers, in nM.

For orientation, consider the following solved cases.
structure_as_smiles | EC50, nM
COc1ccc(Sc2ccc(Sc3ccccn3)nc2C(=O)Nc2ncc(SCC(=O)O)s2)cc1 | 10.9
COC(=O)CCc1cnc(NC(=O)c2nc(Sc3nncn3C)ccc2Sc2ccc(C(F)(F)F)cc2)s1 | 71.8
CCOC(=O)Cc1csc(NC(=O)c2nc(Sc3ccccn3)ccc2Sc2ccc(F)cc2)n1 | 4660
COC(=O)CCc1cnc(NC(=O)c2nc(Sc3nncn3C)ccc2Sc2ccc(OC)cc2)s1 | 23.4
CCOC(=O)Cc1nc(NC(=O)c2nc(Sc3nncn3C)ccc2Sc2ccc(F)cc2)sc1Cl | 8

Consider the following items and state reported EC50 for each.
1. COc1ccc(Sc2ccc(Sc3nncn3C)nc2C(=O)Nc2ccc(CC(N)=O)cc2)cc1
2. COc1ccc(Sc2ccc(Sc3ccccn3)nc2C(=O)Nc2ncc(CCC(=O)O)s2)cc1
3. CCOC(=O)Cc1csc(NC(=O)c2nc(Sc3ccccn3)ccc2Sc2ccc(OC)cc2)n1
4. CNC(=O)CSc1cnc(NC(=O)c2nc(Sc3nncn3C)ccc2Sc2ccc(OC)cc2)s1

Response:
[1890, 140, 275, 10.8]

Consider the following items and state reported EC50 for each.
1. CCOC(=O)Cc1nc(NC(=O)c2nc(Sc3ccccn3)ccc2Sc2ccc(F)cc2)sc1Cl
2. CC(C)(CSc1cnc(NC(=O)c2nc(Sc3ccccn3)ccc2Sc2ccc(F)cc2)s1)C(=O)O

Response:
1: 127; 2: 32

====

test_system: Recombinant human liver glucokinase (Homo sapiens (Human), UniProt P35557)
measurement_protocol: Glucokinase activation assay (G6PDH-coupled, Thio-NADH absorbance at 405 nm)
experimental_setup: 2.5 mM Glu, 30° C.
property: EC50 (µM)
Answers are plain numbers, in µM.

For orientation, consider the following solved cases.
structure_as_smiles | reported
Cn1cnnc1Sc1ccc(Sc2ccc(Cl)c(Cl)c2)c(C(=O)Nc2nc(CC(=O)O)c(Cl)s2)n1 | 0.0233
CCOP(=O)(Cc1cnc(NC(=O)c2nc(Sc3nncn3C)ccc2Sc2ccc(Cl)c(Cl)c2)s1)OCC | 0.0571

Consider the following items and state reported EC50 for each.
1. CCOP(=O)(Cc1cnc(NC(=O)c2nc(Sc3nncn3C)ccc2Sc2ccc(C(F)(F)F)cc2)s1)OCC
2. Cn1cnnc1Sc1ccc(Sc2ccc(C(F)(F)F)cc2)c(C(=O)Nc2nc(CC(=O)O)cs2)n1
3. Cn1cnnc1Sc1ccc(Sc2ccc(C(F)(F)F)cc2)c(C(=O)Nc2ncc(SCC(=O)O)s2)n1
4. Cn1cnnc1Sc1ccc(Sc2ccc(F)cc2)c(C(=O)Nc2nc(CC(=O)O)c(Cl)s2)n1
5. COc1ccc(Sc2ccc(Sc3ccccn3)nc2C(=O)Nc2nc(CC(=O)O)cs2)cc1
6. Cn1cnnc1Sc1ccc(Sc2ccc(C(F)(F)F)cc2)c(C(=O)Nc2nc(CC(=O)O)c(Cl)s2)n1

Response:
1. 0.35
2. 0.222
3. 0.0337
4. 0.0186
5. 0.106
6. 0.044

Consider the following items and state reported EC50 for each.
1. Cn1cnnc1Sc1ccc(Sc2ccc(F)cc2)c(C(=O)Nc2ncc(SCC(C)(C)C(=O)O)s2)n1
2. O=C(O)CSc1cnc(NC(=O)c2nc(Sc3ccccn3)ccc2Sc2ccc(F)cc2)s1
3. COC(=O)CCc1cnc(NC(=O)c2nc(Sc3ccccn3)ccc2Sc2ccc(F)cc2)s1
4. CCOC(=O)Cc1csc(NC(=O)c2nc(Sc3nncn3C)ccc2Sc2ccc(C(F)(F)F)cc2)n1
5. COC(=O)CCc1cnc(NC(=O)c2nc(Sc3ccccn3)ccc2Sc2ccc(OC)cc2)s1
6. COc1ccc(Sc2ccc(Sc3nncn3C)nc2C(=O)Nc2ncc(SCC(=O)O)s2)cc1
7. O=C(O)Cc1csc(NC(=O)c2nc(Sc3ccccn3)ccc2Sc2ccc(F)cc2)n1

Response:
1: 0.0172; 2: 0.034; 3: 0.727; 4: 0.0663; 5: 0.29; 6: 0.0568; 7: 0.413

Input `O=C(O)Cc1nc(NC(=O)c2nc(Sc3ccccn3)ccc2Sc2ccc(F)cc2)sc1Cl` . Output EC50: 0.0161

====

test_system: Recombinant human liver glucokinase (Homo sapiens (Human), UniProt P35557)
measurement_protocol: Glucokinase activation assay (G6PDH-coupled, Thio-NADH absorbance at 405 nm)
experimental_setup: 2.5 mM Glu, 30° C.
pEC50: −log10 of the molar value.
Decide by pEC50: equal to or exceeding 7 means Fulfilled, less means Not fulfilled.

Worked cases, answers included:
structure_as_smiles | assigned_class
CCOC(=O)CSc1cnc(NC(=O)c2nc(Sc3nncn3C)ccc2Sc2ccc(C(F)(F)F)cc2)s1 | Fulfilled
CCOC(=O)Cc1nc(NC(=O)c2nc(Sc3nncn3C)ccc2Sc2ccc(C(F)(F)F)cc2)sc1Cl | Fulfilled

Query: Hi team, for `CCOC(=O)CSc1cnc(NC(=O)c2nc(Sc3nncn3C)ccc2Sc2ccc(Cl)c(Cl)c2)s1` , is the recorded pEC50 at or above 7?
Response: Fulfilled

Query: Hi team, for `Cn1cnnc1Sc1ccc(Sc2ccc(F)cc2)c(C(=O)Nc2ncc(SCC(=O)O)s2)n1` , is the recorded pEC50 at or above 7?
Response: Fulfilled

Query: Hi team, for `COc1ccc(Sc2ccc(Sc3nncn3C)nc2C(=O)Nc2ncc(SCC(C)(C)C(=O)O)s2)cc1` , is the recorded pEC50 at or above 7?
Response: Fulfilled

Query: Hi team, for `CCOC(=O)CSc1cnc(NC(=O)c2nc(Sc3nncn3C)ccc2Sc2ccc(OC)cc2)s1` , is the recorded pEC50 at or above 7?
Response: Fulfilled

Query: Hi team, for `CCOC(=O)CSc1cnc(NC(=O)c2nc(Sc3ccccn3)ccc2Sc2ccc(OC)cc2)s1` , is the recorded pEC50 at or above 7?
Response: Fulfilled

Query: Hi team, for `O=C(O)CSc1cnc(NC(=O)c2nc(Sc3ccc(F)cc3)ccc2Sc2ccc(F)cc2)s1` , is the recorded pEC50 at or above 7?
Response: Not fulfilled

Query: Hi team, for `O=C(O)CCc1cnc(NC(=O)c2nc(Sc3ccccn3)ccc2Sc2ccc(F)cc2)s1` , is the recorded pEC50 at or above 7?
Response: Not fulfilled

====

For each entry below, report its Emax value.
test_system: Recombinant human liver glucokinase (Homo sapiens (Human), UniProt P35557)
measurement_protocol: Glucokinase activation assay (G6PDH-coupled, Thio-NADH absorbance at 405 nm)
Assay type: biochemical
Give bare numbers, in %.

structure_as_smiles | Emax [%]
CCOC(=O)Cc1csc(NC(=O)c2nc(Sc3nncn3C)ccc2Sc2ccc(C(F)(F)F)cc2)n1 | 466
CCOC(=O)Cc1csc(NC(=O)c2nc(Sc3ccccn3)ccc2Sc2ccc(OC)cc2)n1 | 524

Now look at this one.
Input `CCOC(=O)C(C)(C)CSc1cnc(NC(=O)c2nc(Sc3nncn3C)ccc2Sc2ccc(F)cc2)s1` . Output Emax: 460

====

test_system: Recombinant human liver glucokinase (Homo sapiens (Human))
measurement_protocol: Glucokinase activation assay (G6PDH-coupled, Thio-NADH absorbance at 405 nm)
Type: biochemical
Class membership depends on Emax alone; the intervals are bottom bin: < 400%; middle bin: ≥ 400% and < 500%; top bin: ≥ 500%

Worked cases, answers included:
compound | assigned_class
CCOC(=O)CSc1cnc(NC(=O)c2nc(Sc3nncn3C)ccc2Sc2ccc(OC)cc2)s1 [Example 1] | middle bin
Cn1cnnc1Sc1ccc(Sc2ccc(Cl)c(Cl)c2)c(C(=O)Nc2ncc(SCC(=O)O)s2)n1 [Example 52] | middle bin
COc1ccc(Sc2ccc(Sc3ccccn3)nc2C(=O)Nc2nc(CC(=O)O)c(Cl)s2)cc1 [Example 13] | top bin
CCOC(=O)Cc1nc(NC(=O)c2nc(Sc3ccccn3)ccc2Sc2ccc(F)cc2)sc1Cl [Example 31] | middle bin

Query: Please report the category associated with Cn1cnnc1Sc1ccc(Sc2ccc(C(F)(F)F)cc2)c(C(=O)Nc2ncc(CCC(=O)O)s2)n1 [Example 49] , nothing else.
Response: top bin

Query: Please report the category associated with COC(=O)CCc1cnc(NC(=O)c2nc(Sc3nncn3C)ccc2Sc2ccc(OC)cc2)s1 [Example 7] , nothing else.
Response: top bin

Query: Please report the category associated with O=C(O)CSc1cnc(NC(=O)c2nc(Sc3ccc(F)cc3)ccc2Sc2ccc(F)cc2)s1 [Example 28] , nothing else.
Response: bottom bin

Query: Please report the category associated with Cn1cnnc1Sc1ccc(Sc2ccc(C(F)(F)F)cc2)c(C(=O)Nc2nc(CC(=O)O)cs2)n1 [Example 47] , nothing else.
Response: top bin

Query: Please report the category associated with O=C(O)Cc1nc(NC(=O)c2nc(Sc3ccccn3)ccc2Sc2ccc(F)cc2)sc1Cl [Example 32] , nothing else.
Response: top bin

Query: Please report the category associated with CCOC(=O)Cc1nc(NC(=O)c2nc(Sc3ccc(F)cc3)ccc2Sc2ccc(F)cc2)sc1Cl [Example 29] , nothing else.
Response: bottom bin

Query: Please report the category associated with Cn1cnnc1Sc1ccc(Sc2ccc(F)cc2)c(C(=O)Nc2ncc(SCC(C)(C)C(=O)O)s2)n1 [Example 21] , nothing else.
Response: middle bin

Query: Please report the category associated with Cn1cnnc1Sc1ccc(Sc2ccc(C(F)(F)F)cc2)c(C(=O)Nc2ncc(SCC(=O)O)s2)n1 [Example 44] , nothing else.
Response: bottom bin

Query: Please report the category associated with CNC(=O)CSc1cnc(NC(=O)c2nc(Sc3nncn3C)ccc2Sc2ccc(OC)cc2)s1 [Example 3] , nothing else.
Response: top bin

Query: Please report the category associated with Cn1cnnc1Sc1ccc(Sc2ccc(F)cc2)c(C(=O)Nc2ncc(SCC(=O)O)s2)n1 [Example 19] , nothing else.
Response: middle bin

Query: Please report the category associated with CCOC(=O)Cc1nc(NC(=O)c2nc(Sc3ccccn3)ccc2Sc2ccc(OC)cc2)sc1Cl [Example 12] , nothing else.
Response: middle bin
